# studyTarget: T1, M1-1
# T1 construct: also called PD1 mutant M1-1
# protocolText: scFv-phage ELISA
One threshold, 3, splits the recorded OD490 values: lower ones are Criterion met, equal or higher ones are Criterion not met.

Would you kindly verify if OD490 of PD1-51D9 (antibody, V domains shown, scFv-phage in the screening ELISA; whole IgG in the other assays) VH: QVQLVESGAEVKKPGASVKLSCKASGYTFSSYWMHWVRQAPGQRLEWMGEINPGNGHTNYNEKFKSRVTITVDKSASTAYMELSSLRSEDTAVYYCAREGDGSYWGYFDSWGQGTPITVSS VL: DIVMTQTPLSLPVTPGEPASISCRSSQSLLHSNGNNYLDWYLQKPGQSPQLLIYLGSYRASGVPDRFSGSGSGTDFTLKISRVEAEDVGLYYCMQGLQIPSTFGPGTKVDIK is strictly less than 3?
Criterion met

Would you kindly verify if OD490 of PD1-49B9 (antibody, V domains shown, scFv-phage in the screening ELISA; later whole IgG) VH: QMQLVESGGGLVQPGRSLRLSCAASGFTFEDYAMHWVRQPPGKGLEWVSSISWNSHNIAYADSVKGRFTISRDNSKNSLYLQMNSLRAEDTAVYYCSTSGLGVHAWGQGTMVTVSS VL: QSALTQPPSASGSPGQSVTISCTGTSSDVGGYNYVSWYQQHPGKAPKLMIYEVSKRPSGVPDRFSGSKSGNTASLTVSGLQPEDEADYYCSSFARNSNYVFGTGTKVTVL is strictly less than 3?
Criterion not met

Would you kindly verify if OD490 of PD1-29H3 (antibody, V domains shown, scFv-phage in the screening ELISA; later whole IgG) VH: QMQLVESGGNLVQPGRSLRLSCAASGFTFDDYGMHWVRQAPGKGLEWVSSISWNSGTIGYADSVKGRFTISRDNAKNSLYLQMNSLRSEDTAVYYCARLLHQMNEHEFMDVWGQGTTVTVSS VL: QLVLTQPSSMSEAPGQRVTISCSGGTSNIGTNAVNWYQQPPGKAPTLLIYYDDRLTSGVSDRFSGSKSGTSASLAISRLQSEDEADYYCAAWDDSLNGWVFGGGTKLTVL is strictly less than 3?
Criterion not met

Would you kindly verify if OD490 of PD1-45F4 (antibody, V domains shown, scFv-phage in the screening ELISA; later whole IgG) VH: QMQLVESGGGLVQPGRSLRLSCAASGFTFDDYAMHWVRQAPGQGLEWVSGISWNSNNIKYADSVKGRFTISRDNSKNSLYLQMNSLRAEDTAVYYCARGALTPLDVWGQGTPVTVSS VL: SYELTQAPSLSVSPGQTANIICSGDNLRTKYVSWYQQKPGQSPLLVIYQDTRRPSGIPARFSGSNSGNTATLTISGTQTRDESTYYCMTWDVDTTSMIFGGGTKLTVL is strictly less than 3?
Criterion met

Would you kindly verify if OD490 of PD1-41C9 (antibody, V domains shown, scFv-phage in the screening ELISA; whole IgG in the other assays) VH: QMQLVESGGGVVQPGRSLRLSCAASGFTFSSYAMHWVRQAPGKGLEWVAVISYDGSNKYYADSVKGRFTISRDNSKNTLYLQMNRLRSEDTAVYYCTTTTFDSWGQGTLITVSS VL: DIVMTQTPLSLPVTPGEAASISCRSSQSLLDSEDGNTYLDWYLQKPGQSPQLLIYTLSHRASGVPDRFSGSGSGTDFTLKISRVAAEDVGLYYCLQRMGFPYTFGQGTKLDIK is strictly less than 3?
Criterion not met

Would you kindly verify if OD490 of PD1-52E8 (antibody, V domains shown, scFv-phage in the screening ELISA; whole IgG in the other assays) VH: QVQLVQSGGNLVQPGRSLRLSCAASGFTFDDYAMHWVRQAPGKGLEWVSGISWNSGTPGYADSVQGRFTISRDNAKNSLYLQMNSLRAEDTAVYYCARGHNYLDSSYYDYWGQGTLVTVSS VL: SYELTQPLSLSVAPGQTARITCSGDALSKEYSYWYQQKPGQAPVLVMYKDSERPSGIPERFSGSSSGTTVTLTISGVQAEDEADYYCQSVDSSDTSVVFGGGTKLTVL is strictly less than 3?
Criterion met
